We begin with a simple list: items and their reported Max.
Target: Adenosine receptor A1 (Homo sapiens) (UniProt P30542)
Sequence (P30542 whole entry): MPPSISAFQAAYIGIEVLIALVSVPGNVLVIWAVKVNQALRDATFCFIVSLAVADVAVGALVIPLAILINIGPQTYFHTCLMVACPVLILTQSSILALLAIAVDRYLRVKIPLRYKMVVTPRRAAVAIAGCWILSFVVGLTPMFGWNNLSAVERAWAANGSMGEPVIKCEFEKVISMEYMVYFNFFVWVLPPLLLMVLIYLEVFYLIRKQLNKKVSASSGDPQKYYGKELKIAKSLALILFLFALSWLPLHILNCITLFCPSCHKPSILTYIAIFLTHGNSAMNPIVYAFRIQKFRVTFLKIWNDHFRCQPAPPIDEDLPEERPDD
Test: Maximum stimulation against human adenosine A1 receptor
metric: Max

In [3]: df
Out[3]:
                                   compound                           systemundertest  result
0  OC[C@H]1O[C@@H](n2cnc3c(NC4CCCC4)ncnc32)[C@H](O)[C@@H]1O [N6-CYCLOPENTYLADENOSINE]  Adenosine receptor A1 (Homo sapiens) (UniProt P30542)    100%
1  OC[C@@]12C[C@@H]1[C@@H](n1cnc3c(NC4CCCC4)ncnc31)[C@H](O)[C@@H]2O  Adenosine receptor A1 (Homo sapiens) (UniProt P30542)    102%
2  OC[C@@]12C[C@@H]1[C@@H](n1cnc3c(NC4CCCC4)nc(Cl)nc31)[C@H](O)[C@@H]2O  Adenosine receptor A1 (Homo sapiens) (UniProt P30542)     97%
3  OC[C@@]12C[C@@H]1[C@@H](n1cnc3c(NCc4cccc(I)c4)nc(Cl)nc31)[C@H](O)[C@@H]2O  Adenosine receptor A1 (Homo sapiens) (UniProt P30542)     91%
4  OC[C@H]1O[C@@H](n2cnc3c(NCc4cccc(I)c4)ncnc32)[C@H](O)[C@@H]1O  Adenosine receptor A1 (Homo sapiens) (UniProt P30542)     91%
5  OC[C@H]1C[C@@H](n2cnc3c(NCc4cccc(I)c4)ncnc32)[C@H](O)[C@@H]1O  Adenosine receptor A1 (Homo sapiens) (UniProt P30542)      5%
6  OC[C@@]12C[C@@H]1[C@@H](n1cnc3c(NCc4cccc(I)c4)ncnc31)[C@H](O)[C@@H]2O  Adenosine receptor A1 (Homo sapiens) (UniProt P30542)     86%

----------
Reported pKi values follow for various compounds
Target: Adenosine receptor A3 (Homo sapiens, UniProt P0DMS8)
Sequence (P0DMS8 whole entry): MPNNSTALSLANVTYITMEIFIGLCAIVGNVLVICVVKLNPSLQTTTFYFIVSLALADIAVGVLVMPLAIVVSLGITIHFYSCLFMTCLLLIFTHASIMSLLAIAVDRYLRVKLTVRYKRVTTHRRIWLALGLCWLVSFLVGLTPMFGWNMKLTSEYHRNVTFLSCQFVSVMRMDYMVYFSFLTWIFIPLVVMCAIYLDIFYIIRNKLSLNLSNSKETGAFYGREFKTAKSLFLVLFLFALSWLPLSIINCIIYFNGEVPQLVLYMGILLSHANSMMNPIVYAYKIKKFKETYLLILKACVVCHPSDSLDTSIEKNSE
Assay: Displacement of [125I]- AB-MECA from human adenosine A3 receptor expressed in HEK cells
Type: cell-based, HEK293
pKi: −log10 of the molar value.
metric: pKi

>>> print(df.to_string())
                                  structure  quantitativereadout
0  OC[C@@]12C[C@@H]1[C@@H](n1cnc3c(NC4CCCC4)ncnc31)[C@H](O)[C@@H]2O                 6.77
1  OC[C@@]12C[C@@H]1[C@@H](n1cnc3c(NC4CCCC4)nc(Cl)nc31)[C@H](O)[C@@H]2O                 6.33
2  OC[C@@]12C[C@@H]1[C@@H](n1cnc3c(NCc4cccc(I)c4)ncnc31)[C@H](O)[C@@H]2O                 8.38
3  OC[C@H]1C[C@@H](n2cnc3c(NCc4cccc(I)c4)ncnc32)[C@H](O)[C@@H]1O                 5.71

----------
Target: Adenosine receptors; A1 & A3 (Rattus norvegicus) (UniProt P25099+P28647)
Sequence (P25099 whole entry, looked up, one chain of several): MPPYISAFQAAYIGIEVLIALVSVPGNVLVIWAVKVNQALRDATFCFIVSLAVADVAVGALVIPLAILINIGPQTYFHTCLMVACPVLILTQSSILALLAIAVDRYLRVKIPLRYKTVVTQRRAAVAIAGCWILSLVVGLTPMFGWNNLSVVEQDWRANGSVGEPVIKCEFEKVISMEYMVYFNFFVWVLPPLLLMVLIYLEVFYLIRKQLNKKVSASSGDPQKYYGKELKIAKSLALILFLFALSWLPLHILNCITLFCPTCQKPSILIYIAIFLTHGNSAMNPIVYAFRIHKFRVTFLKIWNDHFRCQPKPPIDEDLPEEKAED
Experiment: Relative binding affinity for Adenosine A1 and A3 receptors
Format: protein assay
Checkbox rule: Ratio lower than 4 = Met; Ratio not lower than 4 = Not met.

                                  structure  categorylabel
0  OC[C@H]1C[C@@H](n2cnc3c(NCc4cccc(I)c4)ncnc32)[C@H](O)[C@@H]1O        Not met
1  Nc1ncnc2c1ncn2[C@H]1[C@H](O)[C@H](O)[C@]2(CO)C[C@H]12        Not met
2  OC[C@@]12C[C@@H]1[C@@H](n1cnc3c(NC4CCCC4)ncnc31)[C@H](O)[C@@H]2O            Met
3  OC[C@@]12C[C@@H]1[C@@H](n1cnc3c(NC4CCCC4)nc(Cl)nc31)[C@H](O)[C@@H]2O            Met
4  OC[C@@]12C[C@@H]1[C@@H](n1cnc3c(NCc4cccc(I)c4)nc(Cl)nc31)[C@H](O)[C@@H]2O        Not met

----------
Target: Adenosine receptor A1 (Homo sapiens)
Sequence (P30542 whole entry): as the sequence (P30542 whole entry) above
Assay: Stimulation of [35S]GTP-gamma-S, binding to human adenosine A1 receptor
pEC50: −log10 of the molar value.
metric: pEC50

>>> print(df.to_string())
                                  structure                       systemundertest  relation  quantitativereadout
0  OC[C@@]12C[C@@H]1[C@@H](n1cnc3c(NCc4cccc(I)c4)nc(Cl)nc31)[C@H](O)[C@@H]2O  Adenosine receptor A1 (Homo sapiens)         =                 6.85
1  OC[C@@]12C[C@@H]1[C@@H](n1cnc3c(NC4CCCC4)nc(Cl)nc31)[C@H](O)[C@@H]2O  Adenosine receptor A1 (Homo sapiens)         =                 7.51
2  OC[C@@]12C[C@@H]1[C@@H](n1cnc3c(NC4CCCC4)ncnc31)[C@H](O)[C@@H]2O  Adenosine receptor A1 (Homo sapiens)         =                 7.67
3  OC[C@H]1C[C@@H](n2cnc3c(NCc4cccc(I)c4)ncnc32)[C@H](O)[C@@H]1O  Adenosine receptor A1 (Homo sapiens)         <                 5.00
4  OC[C@@]12C[C@@H]1[C@@H](n1cnc3c(NCc4cccc(I)c4)ncnc31)[C@H](O)[C@@H]2O  Adenosine receptor A1 (Homo sapiens)         =                 6.66

----------
Target: UniProtKB P29274
Sequence (P29274 whole entry): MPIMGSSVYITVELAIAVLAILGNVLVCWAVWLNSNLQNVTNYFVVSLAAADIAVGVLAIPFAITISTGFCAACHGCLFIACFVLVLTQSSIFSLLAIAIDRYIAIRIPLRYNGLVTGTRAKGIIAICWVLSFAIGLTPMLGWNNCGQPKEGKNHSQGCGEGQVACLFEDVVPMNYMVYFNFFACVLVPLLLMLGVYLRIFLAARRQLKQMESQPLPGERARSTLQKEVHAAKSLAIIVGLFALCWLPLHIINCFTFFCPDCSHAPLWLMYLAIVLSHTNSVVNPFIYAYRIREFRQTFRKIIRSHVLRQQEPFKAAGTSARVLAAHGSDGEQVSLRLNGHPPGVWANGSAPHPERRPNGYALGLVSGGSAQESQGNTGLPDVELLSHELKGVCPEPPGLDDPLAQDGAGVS
pKi: −log10 of the molar value.
metric: pKi

In [3]: df
Out[3]:
                                  structure  quantitativereadout
0  Nc1ncnc2c1ncn2[C@H]1[C@H](O)[C@H](O)[C@]2(CO)C[C@H]12                 4.65

----------
Biological target: Adenosine receptor A3 (Homo sapiens)
Test: Maximum stimulation against human adenosine A3 receptor
metric: Max (%)

>>> df
                                  structure                       systemundertest  quantitativereadout
0  OC[C@@]12C[C@@H]1[C@@H](n1cnc3c(NCc4cccc(I)c4)nc(Cl)nc31)[C@H](O)[C@@H]2O  Adenosine receptor A3 (Homo sapiens)                   22
1  OC[C@@]12C[C@@H]1[C@@H](n1cnc3c(NC4CCCC4)nc(Cl)nc31)[C@H](O)[C@@H]2O  Adenosine receptor A3 (Homo sapiens)                   15
2  OC[C@H]1C[C@@H](n2cnc3c(NCc4cccc(I)c4)ncnc32)[C@H](O)[C@@H]1O  Adenosine receptor A3 (Homo sapiens)                   14
3  OC[C@@]12C[C@@H]1[C@@H](n1cnc3c(NC4CCCC4)ncnc31)[C@H](O)[C@@H]2O  Adenosine receptor A3 (Homo sapiens)                   14

----------
Target: Adenosine receptor A3 (Rattus norvegicus, UniProt P28647)
Sequence (P28647 whole entry): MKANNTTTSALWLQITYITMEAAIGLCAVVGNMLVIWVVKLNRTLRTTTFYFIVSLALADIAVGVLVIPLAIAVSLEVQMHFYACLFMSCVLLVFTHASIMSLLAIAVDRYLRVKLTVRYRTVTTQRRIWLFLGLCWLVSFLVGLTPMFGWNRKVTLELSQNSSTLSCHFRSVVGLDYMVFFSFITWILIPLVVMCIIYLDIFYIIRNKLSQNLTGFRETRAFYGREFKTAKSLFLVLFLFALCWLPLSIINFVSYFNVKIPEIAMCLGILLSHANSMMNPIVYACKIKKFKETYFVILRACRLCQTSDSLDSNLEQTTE
pKi: −log10 of the molar value.
metric: pKi

                                   molecule  quantitativereadout
0  Nc1ncnc2c1ncn2[C@@H]1O[C@H](CO)[C@@H](O)[C@H]1O [ADENOSINE]                 6.00

----------
Biological target: Adenosine receptor A3 (Homo sapiens)
Assay: Maximum stimulation against human adenosine A3 receptor
metric: Max

>>> print(df.to_string())
                                   compound  result
0  OC[C@@]12C[C@@H]1[C@@H](n1cnc3c(NCc4cccc(I)c4)ncnc31)[C@H](O)[C@@H]2O   45.3%
1  OC[C@H]1O[C@@H](n2cnc3c(NCc4cccc(I)c4)ncnc32)[C@H](O)[C@@H]1O    100%
2  OC[C@H]1O[C@@H](n2cnc3c(NC4CCCC4)ncnc32)[C@H](O)[C@@H]1O [N6-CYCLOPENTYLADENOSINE]    100%
3  CCNC(=O)[C@H]1O[C@@H](n2cnc3c(N)ncnc32)[C@H](O)[C@@H]1O    100%
